Source of measurements: PubChem BioAssay (NCI)

Assay: NCI Yeast Anticancer Drug Screen. Data for the mlh1 rad18 strain (AID 175)
Settings: S. cerevisiae mlh1 rad18 strain growth inhibition; at 50.0 µM (retest, dose inferred, filed as 5.0); hits give high values
Procedure: Growth inhibition of yeast strains with defined genetic alterations is measured as a screen for potential anti-cancer activity. Selected strains with alterations in DNA damage repair or cell cycle control were exposed to compounds and growth inhibition was measured relative to vehicle treated controls. The strain used in this assay is mlh1 rad18
The panel holds about 79,000 compounds, 15% with a hit somewhere; the sample as a whole holds those more often.
Output schema: class label derived from growth inhibition. Mapping: b0 (below 60%), b1 (60% to below 90%), b2 (90% or more)

Check out these entries, answers already filled in.
CC(=O)Nc1ccc(C(=O)NN2C(=O)C(Cl)C2c2cc(Br)cc(Br)c2O)cc1 (stereo unspecified): b0
O=C(c1cccs1)N(C(=S)N1CCN(c2ccccn2)CC1)c1ccccc1: b0
CC1CN(CCCN2c3ccccc3Sc3ccc(Cl)cc32)C(C)(C)C1 (stereo unspecified): b2
Cc1nc(N)sc1N=Nc1cc(Cl)c([N+](=O)[O-])cc1Cl: b1
Cc1c(C)c(C)c(C(=O)c2ccccc2C(=O)NCCSC(C)(C)C)c(C)c1C: b0
Cc1ccc(C(=O)OCCN2CCN(c3ccccc3)CC2)c([N+](=O)[O-])c1OCc1ccccc1: b1

Below: the item to evaluate.
Request: Tag the class for O=C(c1ccc(F)cc1)c1ccc(Cl)cc1Cl
Response: b2
